- Tested on: rat chronic carcinogenicity bioassay, TD50
- ASSAY SUMMARY: DSSTox (CPDBAS) Carcinogenic Potency Database Summary Rat Bioassay Results
- CONDITION CONTEXT: TD50_Rat_Note: TD50 is harmonic mean of more than one positive test; TargetSites_Rat_Female: urinary bladder; hits give low values
Potency: recorded values
PROPERTY MEASURED: Potency

• O=NN(c1ccccc1)c1ccccc1 = 167 mg/kg/day
• Nc1ccc(N)c2c1C(=O)c1c(N)ccc(N)c1C2=O = 156 mg/kg/day
• COc1ccc(N)c(C)c1 = 470 mg/kg/day
• COc1ccccc1N = 29.7 mg/kg/day
